assay: Zeta-potential measurement; assay type: physicochemical; details: zeta potential of peptide; Fig S15 source data
Outcome: Yes for Zeta-pot. / mV of at least -3 mV; No for anything lower.

- KAKQAANMWQ [JG6]: No
- MKFKFQF [DF5 / CK16]: No
- MKIKIQINM [TM41]: Yes
- CKIKIQINMW [TM86]: Yes
- KIKIQIMWNQ [VH15]: Yes

Task: Hi team, for EFEFQF [KB11] , is the recorded Zeta-pot. / mV at or above -3 mV?
Output: No

Task: Hi team, for KFKFEFEF [MGe01] , is the recorded Zeta-pot. / mV at or above -3 mV?
Output: Yes

###

experiment: Turbidity, derived count rate of scattered light; assay type: physicochemical; settings: logarithm of count rate in kcps
Log10 Count Rate class ranges: small value = under 2, mid value = from 2 up to 3, large value = 3 and over

Field: example entries. Status: answers known.
* CKFKFQFW | large value
* RFWFWFW | large value
* QCKIKIQINMWQ | large value

Now for another entry.
Task: Sort into band: CKAKAQANM
Output: mid value

###

format: physicochemical; conditions: ThT category; 1 if Rel. ThT >2
Entries and their measured ThT Cat, follow.

A selection of reference data follows.
- CSISIQINM: 1 (ThT. Cat is 1, if Rel. ThT >2)
- KIKQII: 0 (ThT-inactive (N-Fold <2))

Task: May I ask what ThT Cat, has been recorded for KIKIQINMAQ ?
Output: 0 (ThT-inactive (N-Fold <2))

Task: May I ask what ThT Cat, has been recorded for FDPFDPFDP ?
Output: 0 (ThT-inactive (N-Fold <2))

Task: May I ask what ThT Cat, has been recorded for QCKIKQIINM ?
Output: 1 (ThT. Cat is 1, if Rel. ThT >2)

Task: May I ask what ThT Cat, has been recorded for QCKIKQII ?
Output: 1 (ThT. Cat is 1, if Rel. ThT >2)

Task: May I ask what ThT Cat, has been recorded for KIKQIINMWQ ?
Output: 1 (ThT. Cat is 1, if Rel. ThT >2)

###

Entries and their measured ThT Cat. follow.
type: physicochemical; details: Fig S10 panel E

Task: May I ask what ThT Cat. has been recorded for QCKAKAQANMWQ ?
Output: 0 (ThT-inactive (N-Fold <2))

Task: May I ask what ThT Cat. has been recorded for CHLHLQL ?
Output: 1 (ThT. Cat is 1, if Rel. ThT >2)

Task: May I ask what ThT Cat. has been recorded for RGDSKIKIQIC ?
Output: 1 (ThT. Cat is 1, if Rel. ThT >2)

Task: May I ask what ThT Cat. has been recorded for QCKFKFQFNM ?
Output: 1 (ThT. Cat is 1, if Rel. ThT >2)

Task: May I ask what ThT Cat. has been recorded for CSISIQI ?
Output: 1 (ThT. Cat is 1, if Rel. ThT >2)

Task: May I ask what ThT Cat. has been recorded for HLHLPLL ?
Output: 0 (ThT-inactive (N-Fold <2))

###

Assay: Zeta-potential measurement
Format: physicochemical
Conditions: zeta-potential of peptide; source data of Figure 2C
Experimental: 4 µL of 1 mg/mL peptide fibrils solution is added to a 20 µL, 50 µM ThT–solution in PBS. The mixture is incubated for 15 min at RT to allow binding of ThT dye with β–sheet rich structures. […] Fluorescence spectra were recorded on an Infinite® M1000 PRO microplate reader (Tecan) at λem = 488 nm upon excitation at λex = 440 nm with 10 nm bandwidths and multiple reads per well (3×3). […] Furthermore, fluorescence microscopy was conducted by staining 1 µL preformed fibrils (1 mg/mL) with 9 µL ThT (50 µM). […]
Outcome: true for Zeta-Potential / mV of at least -8 mV; false for anything lower.

Task: Hi team, for MDQMDQMDQMDQMDQ , is the recorded Zeta-Potential / mV at or above -8 mV?
Output: false

Task: Hi team, for HHHHEIEIEIEI , is the recorded Zeta-Potential / mV at or above -8 mV?
Output: true

Task: Hi team, for KIKIQII , is the recorded Zeta-Potential / mV at or above -8 mV?
Output: true

Task: Hi team, for PPFHPPPFHP , is the recorded Zeta-Potential / mV at or above -8 mV?
Output: false

Task: Hi team, for RGDKIKIQINM , is the recorded Zeta-Potential / mV at or above -8 mV?
Output: true
